Molecular target: Gcr1 (UniProt P07261)
Sequence: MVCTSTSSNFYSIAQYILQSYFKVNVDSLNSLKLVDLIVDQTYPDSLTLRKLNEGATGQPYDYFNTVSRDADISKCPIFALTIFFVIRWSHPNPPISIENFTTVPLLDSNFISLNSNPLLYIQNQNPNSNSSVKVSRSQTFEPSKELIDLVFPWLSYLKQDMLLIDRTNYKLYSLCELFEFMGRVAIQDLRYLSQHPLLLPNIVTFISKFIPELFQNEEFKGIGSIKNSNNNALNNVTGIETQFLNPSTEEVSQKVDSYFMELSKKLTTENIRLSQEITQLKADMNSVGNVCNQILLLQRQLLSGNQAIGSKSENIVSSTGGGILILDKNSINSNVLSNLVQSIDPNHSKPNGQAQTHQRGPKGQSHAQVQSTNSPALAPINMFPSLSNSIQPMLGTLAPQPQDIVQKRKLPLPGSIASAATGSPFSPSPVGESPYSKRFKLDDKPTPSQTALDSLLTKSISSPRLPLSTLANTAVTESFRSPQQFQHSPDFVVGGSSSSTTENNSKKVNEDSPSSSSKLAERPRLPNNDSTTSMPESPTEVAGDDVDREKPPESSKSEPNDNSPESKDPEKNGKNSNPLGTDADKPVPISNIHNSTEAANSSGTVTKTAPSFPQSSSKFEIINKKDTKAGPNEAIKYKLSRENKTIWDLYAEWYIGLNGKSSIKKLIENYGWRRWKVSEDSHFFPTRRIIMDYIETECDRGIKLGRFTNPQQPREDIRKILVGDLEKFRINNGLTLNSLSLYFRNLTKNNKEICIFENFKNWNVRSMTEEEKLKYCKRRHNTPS
Assay: PBM E-score (8-mer binding enrichment) (E-score (-0.5 to 0.5)); higher = stronger / more preferred TF binding
Conditions: protein concentration: 100 nM; construct: GST-full length
Over roughly 33,000 sequences, “E-score (-0.5 to 0.5)” has its median near -0.011; the highest 2% begin near 0.28. The full list was thinned out, with the highest values kept by preference.
Kindly state PBM E-score for each of the entries shown.

Below: 2 sequences and their reported PBM E-score.
GGTAGATA
0.00026
ATTCAGCC
0.0229

Record PBM E-score for all entries; do not skip any.
1. CCCTTGCA
2. AGCATCCC

result:
-0.097
0.33
